molecular target: T1, huNav1.7α + β1-β2-β3 (human Nav1.7α co-expressed with Navβ1, Navβ2 and Navβ3) (human); assay: binding FACS, HEK FlpIn cells
T1 construct: also called huNav1.7-beta1-beta2-beta3
pEC50: −log10 of the molar value.
reported endpoint: pEC50

{"binder": "F010301850 (VHH, also called F0103387G05(L11V, A14P, D23A, H37Y, G40A, A41P, D58G, N82bS, N83R, V89L, R105Q)) VHH: EVQLVESGGGVVQPGGSLRLSCAASGRILRIGYMRWYRQAPGKQREFVARITDDSATGYADSVKGRFTISRDNAKNTVYLQMNSLRPEDTALYYCEALVTASVRGGSIHSGTYWGQGTLVTVSS", "readout number": 8.72}
{"binder": "F010302307 (VHH, also called F0103387G05(L11V, A14P, D23A, H37Y, G40A, A41P, D58G, N73A, N82bS, N83R, V89L, R105Q)) VHH: EVQLVESGGGVVQPGGSLRLSCAASGRILRIGYMRWYRQAPGKQREFVARITDDSATGYADSVKGRFTISRDAAKNTVYLQMNSLRPEDTALYYCEALVTASVRGGSIHSGTYWGQGTLVTVSS", "readout number": 8.54}
{"binder": "F010302309 (VHH, also called F0103387G05(L11V, A14P, D23A, H37Y, G40A, A41P, D58G, N73Q, N82bS, N83R, V89L, R105Q)) VHH: EVQLVESGGGVVQPGGSLRLSCAASGRILRIGYMRWYRQAPGKQREFVARITDDSATGYADSVKGRFTISRDQAKNTVYLQMNSLRPEDTALYYCEALVTASVRGGSIHSGTYWGQGTLVTVSS", "readout number": 8.64}
{"binder": "F0103387G05 (parental)-FLAG-HIS6 (VHH) VHH: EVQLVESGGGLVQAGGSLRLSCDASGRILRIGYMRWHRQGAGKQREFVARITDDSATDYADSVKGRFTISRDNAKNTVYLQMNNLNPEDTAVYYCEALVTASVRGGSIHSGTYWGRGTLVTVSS", "readout number": 8.57}
{"binder": "F010302308 (VHH, also called F0103387G05(L11V, A14P, D23A, H37Y, G40A, A41P, D58G, N73Y, N82bS, N83R, V89L, R105Q)) VHH: EVQLVESGGGVVQPGGSLRLSCAASGRILRIGYMRWYRQAPGKQREFVARITDDSATGYADSVKGRFTISRDYAKNTVYLQMNSLRPEDTALYYCEALVTASVRGGSIHSGTYWGQGTLVTVSS", "readout number": 8.70}
